All values here come from the supplement of paper PMC10567573.

# experiment summary: protein stability index of a GFP-peptide fusion (GPS, HEK-293T) (PSI 1-6); higher = more stable;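 further: 24-mer peptide tiles fused after GFP, lentivirally expressed, FACS-sorted into six equal bins by GFP/DsRed ratio, decoded by Illumina sequencing, PSI is the read-weighted mean bin number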
# conditions: treatment: MLN4924 1 uM, 8 h; c terminus: a fixed tail appended
observable: protein stability index
Reply briefly: the number, and no unit.

These solved cases illustrate the format of a correct answer.
| sequence | protein stability index |
| --- | --- |
| EPVLLFGKIRRGAYALPAGLSAPA [TRIB3] | 3.01 |
| RQTTGLMEYCLEVIKENDPSGFLQ [TRIM9] | 3.05 |
| AEYYRLHLEGYHGTAGDSMSYHSG [TNXB] | 2.96 |
| ESLKVIGRGAFGEVRLVQKKDTGH [STK38L] | 4.63 |
| NPEVGIFVSIAQSEQESLLQQAQA [SMG5] | 4.23 |

Attention now turns to another entry.
// sample ILLSKEPDGVWAYNRGEHPIFVNS [SMAD6] , its protein stability index was 2.44
